Form field: self-cleavage (one value per entry).
B1: HDV Ribozyme (parent)
chain: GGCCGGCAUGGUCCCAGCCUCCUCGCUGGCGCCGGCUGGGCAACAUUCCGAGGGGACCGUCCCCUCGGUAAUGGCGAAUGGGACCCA

# Variants of: B1
# assayComment: self-cleavage, relative activity (ratio to wild type); higher = more cleavage; co-transcriptional
Write the number on its own, no unit after it.

- inputSequence: "GGCCGGCAUGGUCCCAGCCUCCUCGCUGGCGCCGCCUGGGCAACAUUCCGAGGGGACCGGCCCCUCGGUAAUGGCGAAUGGGACCCA [G35C U60G]"
  self-cleavage: 0.353
- inputSequence: "GGCCGGCAUGGUCCCAGCCUCCUCGCUGGCGCCAGCUGGGCAACAUUCCGAGGGGACCGUCCCCUCGGUAAUGGCGAUUGGGACCCA [G34A A78U]"
  self-cleavage: 0.0489
- inputSequence: "GGCCGGCAUGGUCCCAGACUCCUCGCUGGCGCCGGCUGGGCAACAUUCCGAGGGGACCGUCCCCUCAGUAAUGGCGAAUGGGACCCA [C18A G67A]"
  self-cleavage: 0.163
- inputSequence: "GGCCGGCAUGGUCCCAGCCUUCUCGCUGGCGCCGGCUGGGCAACAUUCUGAGGGGACCGUCCCCUCGGUAAUGGCGAAUGGGACCCA [C21U C49U]"
  self-cleavage: 0.245
- inputSequence: "GGCCGGCAUGGCCCCAGCCUCCUCGCUGGCGCCGGCUGGGCAACAUUACGAGGGGACCGUCCCCUCGGUAAUGGCGAAUGGGACCCA [U12C C48A]"
  self-cleavage: 0.762

Reported self-cleavage, variant GGCCGGCAUGGUCCCAGCCUCCUCGCUGCCGCCGGCUGGGCAACAUUCCGAGGGGACCGUCCCCUCGUUAAUGGCGAAUGGGACCCA [G29C G68U] : ____
0.0302

// next record GGCCGGCAUGGUCCCAGCCUCCUCGCUGGCGCCGGCUGGACAACAUUCCGAGGGGACCGUCCCCUCGAUAAUGGCGAAUGGGACCCA [G40A G68A]
1.01

Further, for GGUCGGCAUGGUCCCAGCCUCCUCGCUGGCGCCGGCUGGGCAACAUUCCGAGGGGACCGUCCCCUCGGUAAUGGCGAAUGGGACACA [C3U C85A] ?
0.646

Next variant: GGCCGGCAUGGUCCCAGCCUCCUCGCUGGCGCCGGCUGGGCCACAUUCCGAGGGGACUGUCCCCUCGGUAAUGGCGAAUGGGACCCA [A42C C58U]
0.322

Would you mind doing GGCCGGCAUGGUCCCAGCCUCCUCGCUCGCGCCGGCUGGGCAACAUUCCGAGGGGACCGUCCCCUCGGUAAUGGCUAAUGGGACCCA [G28C G76U] as well?
0.0378

Again, but for GGCCGGCAUGGUCCCAGCCUCCUCGCUGGCGCCGGCGGGGCAACAUUCCGAGGGGACCGUCCCGUCGGUAAUGGCGAAUGGGACCCA [U37G C64G]
0.0437

Do the same for GGCCGGCAUGGUCCCCGCCUCCUCGCUGGCGCCGGCUGGGCAACAUUCCGAGGGGACCGUCCCGUCGGUAAUGGCGAAUGGGACCCA [A16C C64G] please
0.554
